This collection of values is drawn from PubChem BioAssay AID1963862.

Test system: KRAS patient-derived spheroids with HUVEC/MSC, viability
Experiment: Anticancer human tumor 941728-121-R-J1-PDC patient-derived lung adenocarcinoma cell line growth inhibition [KRAS2]; active means viability on the fitted dose curve at most 10% of control; inactive means the rest
Conditions: second compound 10 µM; first compound 0.316 µM
Entry note: the call must match one of True for active, False for inactive

COC(=O)c1ccc2c(C(=Nc3ccc(N(C)C(=O)CN4CCN(C)CC4)cc3)c3ccccc3)c(O)[nH]c2c1 + CC1OCC2(CCN(c3cnc(Sc4ccnc(N)c4Cl)c(N)n3)CC2)C1N ... False
CC(=O)OC12COC1CC(O)C1(C)C(=O)C(O)C3=C(C)C(OC(=O)C(O)C(NC(=O)OC(C)(C)C)c4ccccc4)CC(O)(C(OC(=O)c4ccccc4)C21)C3(C)C (stereo not given) + CNCc1ccccc1-c1csc(C(C)Nc2nc(C)nc3cc(OC)c(OC)cc23)c1 ... True
Cn1nccc1Nc1nccc(-c2cc3c(s2)C(C)(C)N(CCN2CCOCC2)C3=O)n1 + CC1OCC2(CCN(c3cnc(Sc4ccnc(N)c4Cl)c(N)n3)CC2)C1N ... False
CCNC(=O)CC1N=C(c2ccc(Cl)cc2)c2cc(OC)ccc2-n2c(C)nnc21 (stereo not given) + CNCc1ccccc1-c1csc(C(C)Nc2nc(C)nc3cc(OC)c(OC)cc23)c1 ... True

Turning now to a further record.
-- ask Entry CC1COCCN1c1cc(-c2ccnn2C)c2ccnc(-c3ccn[nH]3)c2n1 (stereo not given) + C=CC(=O)N1CCN(c2nc(=O)n(-c3c(C)ccnc3C(C)C)c3nc(-c4c(O)cccc4F)c(F)cc23)C(C)C1 : call = ?
-- reply False

###

System: KRAS patient-derived spheroids with HUVEC/MSC, viability
Experiment: Anticancer human tumor 941728-121-R-J1-PDC cell line growth inhibition [KRAS2]; active = viability on the fitted dose curve at most 10% of control; inactive = the rest;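 further: spheroids exposed to agents for seven days before readout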
Conditions: second compound 1 µM; first compound 0.1 µM
Description: Multicellular complex tumor spheroid response to RAS pathway inhibitors in combination with a targeted agents in patient-derived cell lines with oncogenic KRAS variants from multiple cancer types A high-throughput screen of multi-cell type tumor spheroids was designed to identify active combinations of targeted small molecules and KRAS pathway inhibitors. […] Compounds. […] If the clinical Cmax for an agent had not been determined, the highest concentration tested was 10 microM. […]
Entry note: the call must match one of active, inactive

-- ask Entry CC(C)n1nc(-c2ccc3oc(N)nc3c2)c2c(N)ncnc21 + C=CC(=O)N1CCN(c2nc(=O)n(-c3c(C)ccnc3C(C)C)c3nc(-c4c(O)cccc4F)c(F)cc23)C(C)C1 : call = ?
-- reply active

###

Tested on: KRAS patient-derived spheroids with HUVEC/MSC, viability
Assay: Anticancer human tumor 941728-121-R-J1-PDC cell line growth inhibition [KRAS2]; active means viability on the fitted dose curve at most 10% of control; inactive means the rest;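 further: spheroids exposed to agents for seven days before readout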
Conditions: second compound 0.1 µM; first compound 10 µM
Entry note: the call must match one of active, inactive

CC(C)NCC(C(=O)N1CCN(c2ncnc3c2C(C)CC3O)CC1)c1ccc(Cl)cc1 (stereo not given) + C=CC(=O)N1CCN(c2nc(=O)n(-c3c(C)ccnc3C(C)C)c3nc(-c4c(O)cccc4F)c(F)cc23)C(C)C1 ... active
COC(=O)c1ccc2c(C(=Nc3ccc(N(C)C(=O)CN4CCN(C)CC4)cc3)c3ccccc3)c(O)[nH]c2c1 + CNCc1ccccc1-c1csc(C(C)Nc2nc(C)nc3cc(OC)c(OC)cc23)c1 ... inactive
COc1cc(Nc2ncc3c(n2)-c2ccc(Cl)cc2C(c2c(F)cccc2OC)=NC3)ccc1C(=O)O + CC1OCC2(CCN(c3cnc(Sc4ccnc(N)c4Cl)c(N)n3)CC2)C1N ... inactive
Cn1nccc1Nc1nccc(-c2cc3c(s2)C(C)(C)N(CCN2CCOCC2)C3=O)n1 + CC1OCC2(CCN(c3cnc(Sc4ccnc(N)c4Cl)c(N)n3)CC2)C1N ... inactive

Turning now to a further record.
-- ask Entry CCNC(=O)CC1N=C(c2ccc(Cl)cc2)c2cc(OC)ccc2-n2c(C)nnc21 (stereo not given) + COc1cc2nc(C)nc(NC(C)c3cc(N)cc(C(F)(F)F)c3)c2cc1OC1CCOC1 : call = ?
-- reply inactive
